System: Bacillus subtilis
Experiment: cleaved RNA product abundance (RNA/gDNA barcode ratio) relative to median wild-type variant (ratio to wild type); higher = more accumulation of the downstream cleavage product
Settings: experiment (reporter, strain, medium): exp 4a: truncated aprE reporter, strain BJT201 with 2% xylose (RNase J1 expressed); cleavage site: cggR-gapA (positions -7 to +36 mutated)
just bin them by cleaved RNA product abundance: lower level = under 0.2, middle level = from 0.2 up to 0.4, upper level = 0.4 and over

INSERT INTO measurements (biosequence, assay_system, cat) VALUES
  ('ACAGACGAAGGAGCCGCAAAGAAGTTATTAACGGATGAATAATACCTCAATATAAATATCTCTCACTTATTTAAA', 'Bacillus subtilis', 'lower level'),
  ('ACAGACGAAGGAGCCGCAAAGAAGTTATTTAGGGATGAATAACCCCTCAATATAAATATCTCTCACTTATTTAAA', 'Bacillus subtilis', 'middle level'),
  ('ACAGACGAAGGAGCCGCAAAGAAGTGATTAAGGGATGAATAATCCCTCTATATAAATATCTCTCACTTATTTAAA', 'Bacillus subtilis', 'middle level'),
  ('ACAGACGAAGGAGCCGCAAAGAAATTATTATGGGATGAATAATCCCTCAATATAAATATCTCTCACTTATTTAAA', 'Bacillus subtilis', 'middle level'),
  ('ACAGACGAAGGAGCCGCAAAGAAGAAATTAAGGGATGAATAATTCCTCAATATAAATATCTCTCACTTATTTAAA', 'Bacillus subtilis', 'lower level'),
  ('ACAGACGAAGGAGCCGCAAAGAAGTTAGTAAGGGATGAATAAACCCTCAATATAAATATCTCTCACTTATTTAAA', 'Bacillus subtilis', 'lower level'),
  ('ACAGACGAAGGAGCCGCACAGAATTTATTAAGGGATGAATAATCCCTCAATATAAATATCTCTCACTTATTTAAA', 'Bacillus subtilis', 'upper level'),
  ('ACAGACGAAGGAGCCGCAAGGAAGTTATTAAGGGATGAATCATCCCTCAATATAAATATCTCTCACTTATTTAAA', 'Bacillus subtilis', 'upper level'),
  ('ACAGACGAAGGAGCCGCCAAGAAGTTATTAAGGGATTAATAATCCCTCAATATAAATATCTCTCACTTATTTAAA', 'Bacillus subtilis', 'upper level'),
  ('ACAGACGAAGGAGCCGCAAAAAAGTTATTAAGGGATGAAAAATCCCTCAATATAAATATCTCTCACTTATTTAAA', 'Bacillus subtilis', 'upper level'),
  ('ACAGACGAAGGAGCCGCAAAGTAGTTATTAAGGGATGAATAATCCCTCAATATAAATATCTCTCACTTATTTAAA', 'Bacillus subtilis', 'upper level'),
  ('ACAGACGAAGGAGCCGCAAAGAAGTTATTAAGAGATGAATAGTCCCTCAATATAAATATCTCTCACTTATTTAAA', 'Bacillus subtilis', 'lower level'),
  ('ACAGACGAAGGAGCCGCAAAGAAGTTATTAAGAGATTAATAATCCCTCAATATAAATATCTCTCACTTATTTAAA', 'Bacillus subtilis', 'lower level'),
  ('ACAGACGAAGGAGCCGCAAAGAAGTTATTATGGGATGAATAATCCATCAATATAAATATCTCTCACTTATTTAAA', 'Bacillus subtilis', 'middle level'),
  ('ACAGACGAAGGAGCCGCAAAGAAGTTATTAAGTGATGAATAATCCCTCAATATATATATCTCTCACTTATTTAAA', 'Bacillus subtilis', 'lower level'),
  ('ACAGACGAAGGAGCCGCAAAGAAGTTATCAAGGGATGAATAATCCCTCAATATAATTATCTCTCACTTATTTAAA', 'Bacillus subtilis', 'middle level'),
  ('ACAGACGAAGGAGCCGCAAAGAAGTTATTAAGGGATGAATAATCCAACAATATAAATATCTCTCACTTATTTAAA', 'Bacillus subtilis', 'lower level'),
  ('ACAGACGAAGGAGCCGCAAAGTAGTTATTAAGGGATGAATAATCCCTCAATACAAATATCTCTCACTTATTTAAA', 'Bacillus subtilis', 'lower level'),
  ('ACAGACGAAGGAGCCGCAAAGAAGTTATTTAGGCATGAATAATCCCTCAATATAAATATCTCTCACTTATTTAAA', 'Bacillus subtilis', 'lower level'),
  ('ACAGACGAAGGAGCCGCAAAGAACGTATTAAGGGATGAATAATCCCTCAATATAAATATCTCTCACTTATTTAAA', 'Bacillus subtilis', 'upper level'),
  ('ACAGACGAAGGAGCCGCAAAGAAGTTACTAAGGGATGAATTATCCCTCAATATAAATATCTCTCACTTATTTAAA', 'Bacillus subtilis', 'middle level'),
  ('ACAGACGAAGGAGCCGCAAAGATGTTATTATGGGATGAATAATCCCTCAATATAAATATCTCTCACTTATTTAAA', 'Bacillus subtilis', 'middle level'),
  ('ACAGACGAAGGAGCCGCAAAGAAGTTATTAAGGAATGAATAATCCCTCAGTATAAATATCTCTCACTTATTTAAA', 'Bacillus subtilis', 'lower level'),
  ('ACAGACGAAGGAGCCGCAAAGAAGTTTTTAAGGGATGAATAATCCCTTAATATAAATATCTCTCACTTATTTAAA', 'Bacillus subtilis', 'upper level'),
  ('ACAGACGAAGGAGCCGCAAAGAAGTTATTTATGGATGAATAATCACTCAATATAAATATCTCTCACTTATTTAAA', 'Bacillus subtilis', 'lower level'),
  ('ACAGACGAAGGAGCCGCAAAGAAGTTATTAAGGGATGAATAAACCCTCAATATAATTATCTCTCACTTATTTAAA', 'Bacillus subtilis', 'middle level'),
  ('ACAGACGAAGGAGCCGCAATGAAGTTATTAAGGGATGAATAATCCATCAATATAAATATCTCTCACTTATTTAAA', 'Bacillus subtilis', 'middle level'),
  ('ACAGACGAAGGAGCCGCAAAGAAATTATCAAGGGATGAATAATCCCTCAATATAAATATCTCTCACTTATTTAAA', 'Bacillus subtilis', 'upper level');

---

Test system: Bacillus subtilis
Assay: cleaved RNA product abundance (RNA/gDNA barcode ratio) relative to median wild-type variant (ratio to wild type); higher = more accumulation of the downstream cleavage product
Conditions: experiment (reporter, strain, medium): exp 8a: truncated aprE reporter, strain BJT201 with 2% xylose (RNase J1 expressed); cleavage site: glnRA (positions -5 to +31 mutated)
Listed next: entries and their corresponding cleaved RNA product abundance.
measured metric: cleaved RNA product abundance

INSERT INTO assay_data (biosequence, assay_system, reported_value) VALUES
  ('CGACATGTCCCGCTTCTTTCATTAATCCCTTAGCAACTGTTTTGCTATATACATTTACCTTTTAAGAGGAGGAAT', 'Bacillus subtilis', 0.213),
  ('CGACATGTCCCGCTTCTTTCATTAATCCGTTAGCAAGTGTTTTACTATATACATTTACCTTTTAAGAGGAGGAAT', 'Bacillus subtilis', 0.824),
  ('CGACATGTCCCGCTTCTTTCATTAATCCGTTAGAAATTGTTTTGCTATATACATTTACCTTTTAAGAGGAGGAAT', 'Bacillus subtilis', 0.342),
  ('CGACATGTCCCGCTTCTTTCATTATTCCGTTAGCAACTGTTTAGGTATATACATTTACCTTTTAAGAGGAGGAAT', 'Bacillus subtilis', 0.443),
  ('CGACATGTCCCGCTTCTTTCATTAATCCGTTAGAAGCTGTTTTGCTATATACATTTACCTTTTAAGAGGAGGAAT', 'Bacillus subtilis', 0.23),
  ('CGACATGTCCCGCTTCTTTCATTAATCCGTTAGCAACTGTATTGCTATATACATTTACGTTTTAAGAGGAGGAAT', 'Bacillus subtilis', 1.16),
  ('CGACATGTCCCGCTTCTTTCATTAATCCGTTAGCAGCTGTTTTGCTATATACATTTACCTTTTAAGAGGAGGAAT', 'Bacillus subtilis', 0.754),
  ('CGACATGTCCCGCTTCTTTCATTAATCCGTTAGCAACTGTTTAGCTATATAAATTTACCTTTTAAGAGGAGGAAT', 'Bacillus subtilis', 0.426),
  ('CGACATGTCCCGCTTCTTTCATTAATCCGTAAGCAACTGTTTTGCTATATACATTTACGTTTTAAGAGGAGGAAT', 'Bacillus subtilis', 0.475),
  ('CGACATGTCCCGCTTCTTTCATTAATCAGTTAGCAACTGTTTTGCTATATAAATTTACCTTTTAAGAGGAGGAAT', 'Bacillus subtilis', 0.682),
  ('CGACATGTCCCGCTTCTTTCATTAATCCGTTAGCAACTATTTTGCTATCTACATTTACCTTTTAAGAGGAGGAAT', 'Bacillus subtilis', 0.108),
  ('CGACATGTCCCGCTTCTTTCATTAATCCGTAAGCAACTGTTTTGCTATATACATTAACCTTTTAAGAGGAGGAAT', 'Bacillus subtilis', 0.756),
  ('CGACATGTCCCGCTTCTTTCATTAATCCGTTAGCAACTGTTTTGCGATATACATTTATCTTTTAAGAGGAGGAAT', 'Bacillus subtilis', 0.552),
  ('CGACATGTCCCGCTTCTTTCATTAATCCGTTACCAACTGTTTTGCTATATAGATTTACCTTTTAAGAGGAGGAAT', 'Bacillus subtilis', 0.226),
  ('CGACATGTCCCGCTTCTTTCATTAATCCGTTATCAACTGTTTTGCTATACACATTTACCTTTTAAGAGGAGGAAT', 'Bacillus subtilis', 0.27);

Reference for the values: the supplement of paper PMC11780869
